- System: Saccharomyces cerevisiae
- assay-method-text: protein stability index of tFT-peptide fusion (C-terminal peptide) (PSI (0-1 scale)); higher = more stable (slower turnover)
- experimental-setup: genetic background: wild type; temperature: 30 C
Label FALSE if protein stability index falls below 0.7; label TRUE in every other case.

Exercise: # bool: protein stability index of SAVGRTYGVIII >= 0.7
Key: FALSE

====

- Tested on: Saccharomyces cerevisiae;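 further: PSI is a weighted mean of sequencing reads over stability bins, variants kept only with over 10 reads, mCherry proximal and sfGFP distal, peptide attached via GGGS linker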
- assay-method-text: protein stability index of tFT-peptide fusion (C-terminal peptide) (PSI (0-1 scale)); higher = more stable (slower turnover)
- experimental-setup: genetic background: wild type; temperature: 30 C
protein stability index reference
Number, no unit, nothing else.

PLPHPPPPPPLP | 0.768

Exercise: So what does the record say about protein stability index for PITFPPSLPPPP ?
Key: 0.666

Exercise: Entry to check: YSSALLHPTSPV
Key: 0.655

Exercise: Entry to check: CLGRLRLMSSCR
Key: 0.688

Exercise: Entry to check: GESCGGSERRVG
Key: 0.643

Exercise: Entry to check: LSPPFLLTSPLT
Key: 0.703

Exercise: Entry to check: SRSGVKKDIRKL
Key: 0.657

Exercise: Entry to check: QPTRADLEAPPR
Key: 0.686

Exercise: Entry to check: VGGEGKVVRGQE
Key: 0.652

Exercise: Entry to check: RQDGSPREGIRH
Key: 0.713

Exercise: Entry to check: PPFTLRPQVPTH
Key: 0.664

Exercise: Entry to check: YRFSKELEQKGQ
Key: 0.683

Exercise: Entry to check: QVGRPRVGFSRR
Key: 0.764

Exercise: Entry to check: SVDEARSVRCVI
Key: 0.661

From: the supplement of paper PMC10724198
